Values compiled from patent US20040176393A1.

Target: MMP-1 (interstitial collagenase) (Homo sapiens)
Sequence (P03956 100-469): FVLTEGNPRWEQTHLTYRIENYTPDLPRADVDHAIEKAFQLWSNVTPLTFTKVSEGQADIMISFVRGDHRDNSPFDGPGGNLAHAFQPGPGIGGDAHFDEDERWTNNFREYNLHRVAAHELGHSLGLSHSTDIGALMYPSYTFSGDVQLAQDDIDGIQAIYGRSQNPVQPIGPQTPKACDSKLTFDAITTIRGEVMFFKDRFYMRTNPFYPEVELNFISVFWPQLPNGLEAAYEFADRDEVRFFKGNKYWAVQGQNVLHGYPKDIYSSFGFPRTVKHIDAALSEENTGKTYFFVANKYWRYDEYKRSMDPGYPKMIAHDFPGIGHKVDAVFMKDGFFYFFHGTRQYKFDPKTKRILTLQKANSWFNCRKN
measuredQuantity: IC50 (nM)

                                   compound                                testsystem  observedresult
0  CNC(=O)[C@@H](NC(=O)[C@@H](CC(=O)NO)CC(C)C)C(C)(C)C [RO-31-9790, reference compound]  MMP-1 (interstitial collagenase) (Homo sapiens)             5.5
